Test system: Vero
Test: Cytotoxicity against Chlorocebus aethiops (African green monkey) Vero cells assessed as cell viability after 3 days by SRB assay
Assay type: cell-based
Details: chlorocebus sabaeus, vero, 72 h
observable: pCC50
Give the figure only, with no unit attached.

Entry under test: COc1ccc(NC(=O)C2=C(C)NC(=O)NC2c2ccc(N(C)C)cc2)cc1 (stereo not given) . Its pCC50 was 0.207

Entry under test: COc1ccc(NC(=O)C2=C(C)NC(=S)NC2c2ccc(N(C)C)cc2)cc1 (stereo not given) . Its pCC50 was -0.101

Entry under test: COc1ccc(C2C(C(=O)Nc3ccc(Cl)cc3)=C(C)NC(C)=C2C(=O)Nc2ccc(Cl)cc2)cc1 . Its pCC50 was 1.42

Entry under test: COc1ccc(NC(=O)C2=C(C)NC(=O)NC2c2ccncc2)cc1 (stereo not given) . Its pCC50 was 1.529

Entry under test: COc1ccc(NC(=O)C2=C(C)NC(=O)NC2c2cccc(Cl)c2)cc1 (stereo not given) . Its pCC50 was 0.164

Entry under test: CC1=C(C(=O)Nc2ccc(Cl)cc2)C(/C=C/c2ccccc2)C(C(=O)Nc2ccc(Cl)cc2)=C(C)N1 . Its pCC50 was 1.392

Entry under test: COc1ccc(NC(=O)C2=C(C)NC(=O)NC2c2ccc(O)c(OC)c2)cc1 (stereo not given) . Its pCC50 was 1.68

Entry under test: COc1ccc(NC(=O)C2=C(C)NC(=O)NC2/C=C/c2ccccc2)cc1 (stereo not given) . Its pCC50 was 1.383

Entry under test: CC1=C(C(=O)Nc2ccc(Cl)cc2)C(c2cccc(Cl)c2)C(C(=O)Nc2ccc(Cl)cc2)=C(C)N1 . Its pCC50 was 1.642

Entry under test: COc1ccc(NC(=O)C2=C(C)NC(=O)NC2c2ccc(OC)cc2)cc1 (stereo not given) . Its pCC50 was 0.367

Entry under test: COc1ccc(NC(=O)C2=C(C)NC(=S)NC2c2cccc(Cl)c2)cc1 (stereo not given) . Its pCC50 was 0.157

Entry under test: CC1=C(C(=O)Nc2ccc(Cl)cc2)CC(C(=O)Nc2ccc(Cl)cc2)=C(C)N1 . Its pCC50 was 1.017

Entry under test: COc1ccc(NC(=O)C2=C(C)N=C(S)NC2c2ccc(O)c(OC)c2)cc1 (stereo not given) . Its pCC50 was 1.698

Entry under test: COc1ccc(NC(=O)C2=C(C)NC(=O)NC2)cc1 . Its pCC50 was 0.116

Entry under test: COc1ccc(NC(=O)C2=C(C)NC(=S)NC2c2cccc([N+](=O)[O-])c2)cc1 (stereo not given) . Its pCC50 was 0.697

Entry under test: COc1ccc(NC(=O)C2=C(C)NC(=O)NC2c2ccco2)cc1 (stereo not given) . Its pCC50 was 0.192

Entry under test: CC1=C(C(=O)Nc2ccc(Cl)cc2)C(c2ccncc2)C(C(=O)Nc2ccc(Cl)cc2)=C(C)N1 . Its pCC50 was 0.8

Entry under test: CC1=C(C(=O)Nc2ccc(Cl)cc2)C(c2ccco2)C(C(=O)Nc2ccc(Cl)cc2)=C(C)N1 . Its pCC50 was 1.302

Entry under test: CC1=C(C(=O)Nc2ccc(Cl)cc2)C(c2ccccc2O)C(C(=O)Nc2ccc(Cl)cc2)=C(C)N1 . Its pCC50 was 0.913

Entry under test: COc1ccc(NC(=O)C2=C(C)NC(=S)NC2c2ccco2)cc1 (stereo not given) . Its pCC50 was 0.173

Entry under test: COc1ccc(NC(=O)C2=C(C)NC(=S)NC2c2ccccc2O)cc1 (stereo not given) . Its pCC50 was 0.176

Entry under test: COc1ccc(NC(=O)C2=C(C)NC(=S)NC2c2ccccc2)cc1 (stereo not given) . Its pCC50 was 1.371

Entry under test: COc1cc(C2C(C(=O)Nc3ccc(Cl)cc3)=C(C)NC(C)=C2C(=O)Nc2ccc(Cl)cc2)ccc1O . Its pCC50 was 0.333

Entry under test: CC1=C(C(=O)Nc2ccc(Cl)cc2)C(c2cccc([N+](=O)[O-])c2)C(C(=O)Nc2ccc(Cl)cc2)=C(C)N1 . Its pCC50 was 1.315

Entry under test: COc1ccc(NC(=O)C2=C(C)NC(=O)NC2c2ccccc2O)cc1 (stereo not given) . Its pCC50 was 0.343

Entry under test: COc1ccc(NC(=O)C2=C(C)NC(=O)NC2c2ccccc2)cc1 (stereo not given) . Its pCC50 was 0.176

Entry under test: CC1=C(C(=O)Nc2ccc(Cl)cc2)C(c2ccc(N(C)C)cc2)C(C(=O)Nc2ccc(Cl)cc2)=C(C)N1 . Its pCC50 was 0.538

Entry under test: CC1=C(C(=O)Nc2ccc(Cl)cc2)C(c2ccccc2)C(C(=O)Nc2ccc(Cl)cc2)=C(C)N1 . Its pCC50 was 1.516

Entry under test: COc1ccc(NC(=O)C2=C(C)NC(=S)NC2c2ccc(OC)cc2)cc1 (stereo not given) . Its pCC50 was 0.408

Entry under test: COc1ccc(NC(=O)C2=C(C)NC(=O)NC2c2cccc([N+](=O)[O-])c2)cc1 (stereo not given) . Its pCC50 was 0.776
